Experimental Details: Pharmacokinetics after iv and oral administration, P‐S difference method, Bcrp(−/−) mice
Assay type: in vivo
Condition Set: male, Bcrp(−/−) (FVB background), mouse, plasma, iv, 1 mg/kg, Bcrp(−/−) mice; iv 1 mg/kg
Counter-ions that a name gives are not always drawn.
Readout Name: half-life (h)

{"Molecule": "CC[C@@]1(O)C(=O)OCc2c1cc1n(c2=O)Cc2cc3c(CN(C)C)c(O)ccc3nc2-1 [topotecan, Topotecan HCl]", "Readout Name": "half-life", "Unit Of Measurement": "h", "Quantitative Readout": 1.49}

a. O=C1CN(/N=C/c2ccc([N+](=O)[O-])o2)C(=O)N1 [nitrofurantoin, Nitrofurantoin]
b. O=C(O)c1cc(/N=N/c2ccc(S(=O)(=O)Nc3ccccn3)cc2)ccc1O [sulfasalazine, Sulfasalazine]
# input Between item a and item b , which reported half-life is smaller? Answer by quoting the chosen item's label.
# output a
(a: 1.41 h, b: 3.57 h)
